Quick reference for TGI among some molecules
system: EKVX NSCLC; assay: NCI tumour cell line growth inhibition, 48 h
recorded-endpoint: TGI

[[record]]
molecule = "O=C(c1ccccc1)c1c(NCC(O)CN2CCOCC2)n(Cc2ccccc2)c(=O)n(Cc2ccccc2)c1=O (centres undefined)"
value = "> 90.8 µM"

[[record]]
molecule = "Cc1ccccc1-c1nc2c(C(=O)NCCN(C)C)cccc2[nH]1"
value = "> 100 µM"

[[record]]
molecule = "CCN(c1cc(-c2ccc(CN3CCOCC3)cc2)cc(C(=O)NCc2c(C)cc(C)[nH]c2=O)c1C)C1CCOCC1"
value = "> 100 µM"

[[record]]
molecule = "COc1ccc(C(=O)CC(c2ccccc2)[C@H]2C(c3ccc(OC)cc3)=Nc3c(nc(SC)n(C)c3=O)NC2c2ccccc2)cc1 (some centres undefined)"
value = "> 100 µM"


* * *

Parameter: TGI. Scope: all listed entries.
test system: DMS 273 small cell lung; test: NCI tumour cell line growth inhibition, 48 h
recorded-endpoint: TGI

[[record]]
molecule = "CC(C)Cc1ccc(C(C)CC2=CCC(CN(C)C)C2=O)cc1 (stereo not drawn)"
recorded_endpoint = "TGI"
value = "14.9 µM"

[[record]]
molecule = "C=CCC1=C(C)C[C@@H]2CCC(=O)C=C12"
recorded_endpoint = "TGI"
value = "> 100 µM"

[[record]]
molecule = "COc1cccc(C=O)c1[O-].[O]=[U](=[O])([OH2+])[OH2+]"
recorded_endpoint = "TGI"
value = "> 100 µM"


* * *

system: MDA-MB-435; assay: NCI tumour cell line growth inhibition, 48 h
recorded-endpoint: TGI

[[record]]
smiles_str = "Cc1nn(-c2ccccc2)c(C)c1/C=N/N=C1\\S/C(=C\\c2ccc(Cl)cc2)C(=O)N1c1ccccc1"
recorded_endpoint = "TGI"
value = "> 100 µM"

[[record]]
smiles_str = "c1ccc2c(c1)SCCCSCCSCCCS2"
recorded_endpoint = "TGI"
value = "> 100 µM"

[[record]]
smiles_str = "Cc1cc(N=C2C=C(Br)C(=O)C(Br)=C2)cc(CN(CC(=O)O)CC(=O)O)c1O"
recorded_endpoint = "TGI"
value = "> 100 µM"


* * *

test system: 786-0 renal; experiment: NCI tumour cell line growth inhibition, 48 h
Below, each entry is listed alongside its reported TGI.
recorded-endpoint: TGI

[[record]]
compound = "CN1CC2=C(NC(=S)NC2c2ccccc2)/C(=C/c2ccccc2)C1 (centres undefined)"
recorded_endpoint = "TGI"
value = "> 100 µM"

[[record]]
compound = "CC(C)(C)CC(C)(C)c1cc(O)c(O)c(CN2CCCCC2)c1"
recorded_endpoint = "TGI"
value = "26.7 µM"

[[record]]
compound = "CC(C)(C)OC(=O)NCCCn1c2c(c3ccccc3c1=O)C(=O)c1ccccc1-2"
recorded_endpoint = "TGI"
value = "41.6 µM"

[[record]]
compound = "c1cncc(CNCc2cccnc2)c1"
recorded_endpoint = "TGI"
value = "> 100 µM"

[[record]]
compound = "c1ccc2c(c1)SCCCSCCSCCCS2"
recorded_endpoint = "TGI"
value = "> 100 µM"

[[record]]
compound = "CN1C(=O)C(O)C[C@@H]1c1ccccc1 (some centres undefined)"
recorded_endpoint = "TGI"
value = "> 100 µM"

[[record]]
compound = "Cc1ccc(S(=O)(=O)c2ccccc2[N+](=O)[O-])cc1"
recorded_endpoint = "TGI"
value = "> 100 µM"

[[record]]
compound = "CC1=C2C(=CO[C@H](C)[C@H]2C)C(=O)C(C(=O)O)=C1O"
recorded_endpoint = "TGI"
value = "62.7 µM"

[[record]]
compound = "O=C(Cc1ccc(Cl)c(Cl)c1)NCC1(N2CCCCC2)CCCCC1"
recorded_endpoint = "TGI"
value = "> 100 µM"

